All figures here come from ChEMBL document CHEMBL1201862.

# SYSTEM NAME: Replicative DNA helicase DnaB (Mycobacterium tuberculosis)
# Sequence (P9WMR3 1-399, added parts left off): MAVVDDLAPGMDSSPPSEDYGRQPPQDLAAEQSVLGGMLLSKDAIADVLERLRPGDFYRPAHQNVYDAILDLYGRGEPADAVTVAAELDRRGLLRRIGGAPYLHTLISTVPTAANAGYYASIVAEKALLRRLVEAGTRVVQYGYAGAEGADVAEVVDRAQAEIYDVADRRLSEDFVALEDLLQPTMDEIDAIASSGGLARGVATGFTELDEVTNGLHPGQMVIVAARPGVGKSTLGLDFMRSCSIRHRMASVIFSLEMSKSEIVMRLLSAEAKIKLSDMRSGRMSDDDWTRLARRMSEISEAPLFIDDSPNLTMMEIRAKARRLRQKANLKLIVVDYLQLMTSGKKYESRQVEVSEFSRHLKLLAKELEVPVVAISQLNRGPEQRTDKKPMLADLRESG
# TEST METHOD NOTES: DnaB intein splicing inhibitors, dose response, biochemical, cell-free fluorescence (AID 449749)
# Format: functional
Calls of active or inactive are those of the source. Rule as the data show it: actives have a measured AC50 and inactives only a lower limit.
PROPERTY MEASURED: AC50

COc1ccc(NC(=S)Nc2ccc3nsnc3c2)cc1    > 120 µM (inactive)
O=C1c2ccccc2-n2c1nc1ccccc1c2=O    1.08 µM (active)
O=C1C(=O)c2ccccc2C(O)=C1CCCCl    6.36 µM (active)

IN: Report AC50 for COc1cccc(/N=C2\C(Cl)=C(O)OC2OC(=O)c2ccco2)c1 (stereo unspecified)
OUT: 22.3 µM (active)

IN: Report AC50 for Cn1cnc([N+](=O)[O-])c1Oc1cccc2ccccc12
OUT: 28.3 µM (active)
